Origin of the recorded values: patent US6962909B2

Listed here: items and their measured Vascular reactivity (capillary regression).
test system: vitelline capillaries of 3- to 5-day chick embryo; test: Chick embryo vitelline capillary regression assay; type: in vivo; design: key: + = Vascular reactivity; 0 = No vascular reactivity; +/− = Equivocal reactivity; conditions: 0.01 μg applied; 60 minutes
observed_property: Vascular reactivity (capillary regression)

>>> val("CC(C)CCCC(C)[C@H]1CCC2C3C(CC[C@@]21C)[C@@]1(C)CC[C@H](N)C[C@@H]1C[C@H]3O (some centres unmarked) [Compound 1364]")
0
>>> val("COC(=O)CCC(C)[C@H]1CCC2C3C(CC[C@@]21C)[C@@]1(C)CC[C@H](NCCCNCCCCNCCCN)C[C@@H]1C[C@H]3O (some centres unmarked) [Compound 396]")
0
>>> val("CC(CCC(=O)O)[C@H]1CCC2C3C(CC[C@@]21C)[C@@]1(C)CC[C@@H](NCCCNCCCCN)C[C@@H]1C[C@H]3O (some centres unmarked) [Compound 382]")
0
>>> val("CC(CCC(=O)O)[C@H]1CCC2C3C(CC[C@@]21C)[C@@]1(C)CC[C@@H](NCCCNCCCCNCCCN)C[C@H]1C[C@H]3O (some centres unmarked) [Compound 412]")
0
>>> val("COC(=O)CCC(C)[C@H]1CCC2C3C(CC[C@@]21C)[C@@]1(C)CC[C@H](NCCCNCCCCNCCCN)C[C@H]1C[C@H]3O (some centres unmarked) [Compound 411]")
0
>>> val("CC(C)CCCC(C)[C@H]1CCC2C3C(CC[C@@]21C)[C@@]1(C)CC[C@H](NCCCNCCCCN)C[C@@H]1C[C@H]3O (some centres unmarked) [Compound 371]")
0

----------
Test system: vitelline capillaries of 3- to 5-day chick embryo
Assay: Chick embryo vitelline capillary regression assay
Assay type: in vivo
Set-up: key: + = Vascular reactivity; 0 = No vascular reactivity; +/− = Equivocal reactivity
Conditions: 1 μg applied; 60 minutes
Description: Using the chick embryo vitelline capillaries assay, compounds were tested for their ability to induce capillary regression. Each compound was applied in 0.1 ml of 15% Ficol 400 and PBS onto the embryo, and vascular regression was assessed after 60 minutes. The 3-day chick embryo consists of an embryonic disc from which numerous vessels emerge and return, forming a “figure 8”-shaped structure—the embryo in the center with vascular loops extending outward over both poles. […]
observed_property: Vascular reactivity (capillary regression)

>>> val("CC(CCC(=O)O)[C@H]1CCC2C3C(CC[C@@]21C)[C@@]1(C)CC[C@H](NCCCNCCCCN)C[C@@H]1C[C@H]3O (stereo partly drawn)")
0
>>> val("CC(CCC(=O)O)[C@H]1CCC2C3CC[C@H]4C[C@@H](NCCCNCCCCN)CC[C@]4(C)C3CC[C@@]21C (stereo partly drawn)")
"+"
>>> val("CC(COS(=O)(=O)O)C(=O)CCC(C)[C@H]1CCC2C3C(CC[C@@]21C)[C@@]1(C)CC[C@H](NCCCNCCCCN)C[C@@H]1C[C@H]3O (stereo partly drawn)")
0
>>> val("CC(CCC(=O)O)[C@H]1CCC2C3C(CC[C@@]21C)[C@@]1(C)CC[C@H](NCCN)C[C@H]1C[C@H]3O (stereo partly drawn)")
"+"
>>> val("CC(C)CCCC(C)[C@H]1CCC2C3CC[C@H]4C[C@@H](NCCCNCCCCNCCCN)CC[C@]4(C)C3CC[C@@]21C (stereo partly drawn)")
"+/−"
>>> val("CC(CC[C@@H](OS(=O)(=O)O)C(C)C)[C@H]1CCC2C3C(CC[C@@]21C)[C@@]1(C)CC[C@H](NCCCNCCCCN)C[C@@H]1C[C@H]3O (stereo partly drawn)")
"+"

----------
Each record here notes measured Vascular reactivity (capillary regression).
tested on: vitelline capillaries of 3- to 5-day chick embryo; assay: Chick embryo vitelline capillary regression assay; type: in vivo; set-up: key: + = Vascular reactivity; 0 = No vascular reactivity; +/− = Equivocal reactivity; conditions: 0.1 μg applied; 60 minutes
observed_property: Vascular reactivity (capillary regression)

>>> val("COC(=O)CCC(C)[C@H]1CCC2C3C(CC[C@@]21C)[C@@]1(C)CC[C@H](NCCCNCCCCNCCCN)C[C@@H]1C[C@H]3O (some centres unmarked)")
0
>>> val("CC(CCC(=O)O)[C@H]1CCC2C3C(CC[C@@]21C)[C@@]1(C)CC[C@@H](NCCCNCCCCN)C[C@@H]1C[C@H]3O (some centres unmarked)")
0
>>> val("CC(CCC(=O)O)[C@H]1CCC2C3C(CC[C@@]21C)[C@@]1(C)CC[C@@H](NCCCNCCCCNCCCN)C[C@H]1C[C@H]3O (some centres unmarked)")
0

----------
tested on: vitelline capillaries of 3- to 5-day chick embryo; experiment: Chick embryo vitelline capillary regression assay; type: in vivo; set-up: key: + = Vascular reactivity; 0 = No vascular reactivity; +/− = Equivocal reactivity; details: 0.1 μg applied; 60 minutes
observed_property: Vascular reactivity (capillary regression)

>>> val("CC(C)CCCC(C)[C@H]1CCC2C3C(CC[C@@]21C)[C@@]1(C)CC[C@H](N)C[C@@H]1C[C@H]3O (stereo partly drawn)")
0
>>> val("COC(=O)CCC(C)[C@H]1CCC2C3C(CC[C@@]21C)[C@@]1(C)CC[C@H](NCCCNCCCCNCCCN)C[C@H]1C[C@H]3O (stereo partly drawn)")
0
>>> val("CC(CC[C@@H](OS(=O)(=O)O)C(C)C)[C@H]1CCC2C3C(CC[C@@]21C)[C@@]1(C)CC[C@H](NCCCNCCCCN)C[C@@H]1C[C@H]3O (stereo partly drawn)")
"+"
>>> val("COC(=O)CCC(C)[C@H]1CCC2C3C(CC[C@@]21C)[C@@]1(C)CC[C@@H](NCCN)C[C@H]1C[C@H]3O (stereo partly drawn)")
"+/−"
>>> val("CC(C)CCCC(C)[C@H]1CCC2C3C(CC[C@@]21C)[C@@]1(C)CC[C@H](NCCCNCCCCN)C[C@@H]1C[C@H]3O (stereo partly drawn)")
0
>>> val("CC(CCC(=O)O)[C@H]1CCC2C3C(CC[C@@]21C)[C@@]1(C)CC[C@H](NCCN)C[C@H]1C[C@H]3O (stereo partly drawn)")
"+"

----------
system: vitelline capillaries of 3- to 5-day chick embryo; test: Chick embryo vitelline capillary regression assay; type: in vivo; design: key: + = Vascular reactivity; 0 = No vascular reactivity; +/− = Equivocal reactivity; settings: 10 μg applied; 60 minutes
observed_property: Vascular reactivity (capillary regression)

>>> val("CC(CCC(=O)O)[C@H]1CCC2C3C(CC[C@@]21C)[C@@]1(C)CC[C@@H](NCCCNCCCCN)C[C@@H]1C[C@H]3O (stereo partly drawn) [Compound 382]")
"+"
>>> val("CC(C)CCCC(C)[C@H]1CCC2C3C(CC[C@@]21C)[C@@]1(C)CC[C@H](N)C[C@@H]1C[C@H]3O (stereo partly drawn) [Compound 1364]")
"+"
>>> val("CC(C)CCCC(C)[C@H]1CCC2C3C(CC[C@@]21C)[C@@]1(C)CC[C@H](NCCCNCCCCN)C[C@@H]1C[C@H]3O (stereo partly drawn) [Compound 371]")
"+"
>>> val("CC(CC[C@@H](OS(=O)(=O)O)C(C)C)[C@H]1CCC2C3C(CC[C@@]21C)[C@@]1(C)CC[C@H](NCCCNCCCCNCCCN)C[C@@H]1C[C@H]3O (stereo partly drawn) [Compound 1436]")
"+"
>>> val("CC(CC[C@@H](OS(=O)(=O)O)C(C)C)[C@H]1CCC2C3C(CC[C@@]21C)[C@@]1(C)CC[C@H](NCCCNCCCCN)C[C@@H]1C[C@H]3O (stereo partly drawn) [squalamine]")
"+"
>>> val("CC(CCC(=O)O)[C@H]1CCC2C3CC[C@H]4C[C@@H](NCCCNCCCCN)CC[C@]4(C)C3CC[C@@]21C (stereo partly drawn) [Compound 319]")
"+"

----------
system: vitelline capillaries of 3- to 5-day chick embryo; experiment: Chick embryo vitelline capillary regression assay; format: in vivo; set-up: key: + = Vascular reactivity; 0 = No vascular reactivity; +/− = Equivocal reactivity; settings: 1 μg applied; 60 minutes
observed_property: Vascular reactivity (capillary regression)

>>> val("CC(C)CCCC(C)[C@H]1CCC2C3C(CC[C@@]21C)[C@@]1(C)CC[C@H](N)C[C@@H]1C[C@H]3O (stereo partly shown) [Compound 1364]")
"+"
>>> val("CC(CCC(=O)O)[C@H]1CCC2C3C(CC[C@@]21C)[C@@]1(C)CC[C@@H](NCCCNCCCCNCCCN)C[C@H]1C[C@H]3O (stereo partly shown) [Compound 412]")
"+"
>>> val("CC(C)CCCC(C)[C@H]1CCC2C3CC[C@H]4C[C@@H](NCCCNCCCCN)CC[C@]4(C)C3CC[C@@]21C (stereo partly shown) [Compound 303]")
0
>>> val("CC(CCC(=O)O)[C@H]1CCC2C3CC[C@H]4C[C@H](NCCCNCCCCN)CC[C@]4(C)C3CC[C@@]21C (stereo partly shown) [Compound 318]")
0
>>> val("CC(CCC(=O)O)[C@H]1CCC2C3C(CC[C@@]21C)[C@@]1(C)CC[C@H](NCCCNCCCCNCCCN)C[C@H]1C[C@H]3O (stereo partly shown) [Compound 413]")
0
>>> val("COC(=O)CCC(C)[C@H]1CCC2C3C(CC[C@@]21C)[C@@]1(C)CC[C@@H](NCCN)C[C@H]1C[C@H]3O (stereo partly shown) [Compound 410]")
"+"
>>> val("CC(C)CCCC(C)[C@H]1CCC2C3C(CC[C@@]21C)[C@@]1(C)CC[C@H](NCCCNCCCCN)C[C@@H]1C[C@H]3O (stereo partly shown) [Compound 371]")
"+/−"
